Measured pEC50 of individual entries
tested on: AGS gastric carcinoma cells [heterozygous G12D]; experiment: Cancer cell line proliferation (CellTiter-Glo), AGS; assay type: cell-based; conditions: Homo sapiens, 72 hr treatment, read-out: AGS CTG (EC50)
pEC50: −log10 of the molar value.

Reference set, count: 3
C#Cc1c(F)ccc2cc(O)cc(-c3nc(OC)c4c(N5CC6CCC(C5)N6)nc(OCC5(CN6CCN(Cc7ccc8c(c7)CN(C(=O)c7cc(C(C)C)c(O)cc7O)C8)CC6)CC5)nc4c3F)c12 > 7.00
COc1cccc2cccc(-c3ncc4c(N5CC6CCC(C5)N6)nc(OC[C@@H]5C[C@H](N6CCN(Cc7ccc8c(c7)CN(C(=O)c7cc(C(C)C)c(O)cc7O)C8)CC6)CN5C)nc4c3F)c12 6.00 to 7.00
C#Cc1cccc2cccc(-c3ncc4c(N5CC6CCC(C5)N6)nc(OC[C@@H]5CC[C@H](CN6CCN(C(=O)C7CCN(Cc8ccc(-n9c(C(=O)NCC)nnc9-c9cc(C(C)C)c(O)cc9O)cc8)CC7)CC6)N5C)nc4c3F)c12 > 7.00

Value of pEC50 reported for the compound C#Cc1cccc2cc(O)cc(-c3ncc4c(N5CC6CCC(C5)N6)nc(OC[C@@H]5C[C@H](N6CCN(C(=O)C7CCN(Cc8ccc9c(c8)CN(C(=O)c8cc(C(C)C)c(O)cc8O)C9)CC7)CC6)CN5C)nc4c3F)c12 is 6.00 to 7.00

###

tested on: SW1990 pancreatic adenocarcinoma cells [homozygous G12D]; assay: Cancer cell line proliferation (CellTiter-Glo), SW1990; format: cell-based; details: Homo sapiens, 72 hr treatment, read-out: SW1990 CTG (EC50)
pEC50: −log10 of the molar value.
Metric Name: pEC50

Reference set, count: 2
Molecule	pEC50
C#Cc1c(F)ccc2cc(O)cc(-c3nc(OC)c4c(N5CC6CCC(C5)N6)nc(OCC5(CN6CCN(C7CCN(Cc8ccc(-n9c(C(=O)NC(C)C(F)(F)F)nnc9-c9cc(C(C)C)c(O)cc9O)cc8)CC7)CC6)CC5)nc4c3F)c12 (stereo not shown) [Compound 178]	> 7.00
CC(C)c1cc(C(=O)N2Cc3ccc(CN4CCC(CN5CCN(CC6(COc7nc(N8CC9CCC(C8)N9)c8cnc(-c9cc(O)cc%10ccccc9%10)c(F)c8n7)CC6)CC5)CC4)cc3C2)c(O)cc1O [Compound 159]	6.00 to 7.00

Value of pEC50 reported for the molecule C#Cc1c(F)ccc2cc(O)cc(-c3nc(OC)c4c(N5CC6CCC(C5)N6)nc(OCC5(CN6CCN(CC7CCN(Cc8ccc(-n9c(C(=O)NC(C)C(F)(F)F)nnc9-c9cc(C(C)C)c(O)cc9O)cc8)CC7)CC6)CC5)nc4c3F)c12 (stereo not shown) [Compound 158] is > 7.00

Value of pEC50 reported for the molecule C#Cc1c(F)ccc2cc(O)cc(-c3nc(OC)c4c(N5CC6CCC(C5)N6)nc(OCC5(CNCC6CN(Cc7ccc8c(c7)CN(C(=O)c7cc(C(C)C)c(O)cc7O)C8)CCO6)CC5)nc4c3F)c12 (stereo not shown) [Compound 191] is 6.00 to 7.00

###

test system: AGS gastric carcinoma cells [heterozygous G12D]; test: Cancer cell line proliferation (CellTiter-Glo), AGS; type: cell-based; settings: Homo sapiens, 72 hr treatment, read-out: AGS CTG (EC50)
pEC50: −log10 of the molar value.
Measured pEC50 of individual entries

Compound	Result
CCc1cc(-c2nnc(C(=O)NCC(F)(F)F)n2-c2ccc(CN3CCN(C[C@H]4CC[C@@H](COc5nc(N6CC7CCC(C6)N7)c6cnc(-c7cccc8cccc(C)c78)c(F)c6n5)N4C)CC3)cc2)c(O)cc1O	6.00 to 7.00
CC(C)c1cc(C(=O)N2Cc3ccc(CN4CCN([C@H]5C[C@@H](COc6nc(N7CC8CCC(C7)N8)c7cnc(-c8cccc9ccccc89)c(F)c7n6)N(C)C5)CC4)cc3C2)c(O)cc1O	6.00 to 7.00
CNC(=O)c1nnc(-c2cc(C)c(O)cc2O)n1-c1ccc(CN2CCN(C(=O)C3CCN([C@H]4C[C@@H](COc5nc(C6CC7CCC(C6)N7)c6cnc(-c7cccc8cccc(Cl)c78)c(F)c6n5)N(C)C4)CC3)CC2)cc1 (stereo partly shown)	< 6.00
C#Cc1c(F)ccc2cc(O)cc(-c3ncc4c(N5CC6CCC(C5)N6)nc(OCC5(CN6CCN(CC7CCN(Cc8ccc(-n9c(C(=O)NCC)nnc9-c9cc(CC)c(O)cc9O)cc8)CC7)CC6)CC5)nc4c3F)c12	> 7.00
CCNC(=O)c1nnc(-c2cc(C(C)C)c(O)cc2O)n1-c1ccc(CN2CCN(C[C@H]3CC[C@@H](COc4nc(N5CC6CCC(C5)N6)c5cnc(-c6cccc7cccc(C)c67)c(F)c5n4)N3C)CC2)cc1	> 7.00

Value of pEC50 reported for the compound C#Cc1c(F)ccc2cc(O)cc(-c3ncc4c(N5CC6CCC(C5)N6)nc(OCC5(CN6CCN(CC7CN(Cc8ccc(-n9c(C(=O)NCC(F)(F)F)nnc9-c9cc(C(C)C)c(O)cc9O)cc8)C7)CC6)CC5)nc4c3F)c12 is > 7.00

Value of pEC50 reported for the compound C#Cc1cccc2cccc(-c3ncc4c(N5CC6CCC(C5)N6)nc(OC[C@@H]5C[C@H](N6CCN(Cc7ccc(-n8c(O)nnc8-c8cc(C(C)C)c(O)cc8O)cc7)CC6)CN5C)nc4c3F)c12 is 6.00 to 7.00

###

Measured pEC50 of individual entries
test system: AGS gastric carcinoma cells [heterozygous G12D]; assay: Cancer cell line proliferation (CellTiter-Glo), AGS; format: cell-based; settings: Homo sapiens, 72 hr treatment, read-out: AGS CTG (EC50)
pEC50: −log10 of the molar value.

Compound	Measured On	pEC50
C#Cc1cccc2cc(O)cc(-c3ncc4c(N5CC6CCC(C5)N6)nc(OCC5(CN6CCN(CC7CCN(Cc8ccc9c(c8)CN(C(=O)c8cc(C(C)C)c(O)cc8OC)C9)CC7)CC6)CC5)nc4c3F)c12	AGS gastric carcinoma cells [heterozygous G12D]	> 7.00
C#Cc1c(F)ccc2cc(O)cc(-c3ncc4c(N5CC6CCC(C5)N6)nc(OCC5(CN6CCN(CC7CN(Cc8ccc(-n9c(C(=O)NC(C)C(F)(F)F)nnc9-c9cc(C(C)C)c(O)cc9O)cc8)C7)CC6)CC5)nc4c3F)c12 (centres unmarked)	AGS gastric carcinoma cells [heterozygous G12D]	> 7.00
C#Cc1cccc2cc(O)cc(-c3ncc4c(N5CC6CCC(C5)N6C(=O)C(F)(F)F)nc(OCC5(CN6CCN(CC7CCN(Cc8ccc9c(c8)CN(C(=O)c8cc(C(C)C)c(O)cc8O)C9)CC7)CC6)CC5)nc4c3F)c12	AGS gastric carcinoma cells [heterozygous G12D]	6.00 to 7.00

The reported AGS gastric carcinoma cells [heterozygous G12D] pEC50 of C#Cc1cccc2cc(O)cc(-c3ncc4c(N5CC6CCC(C5)N6)nc(OC[C@@H]5C[C@H](N6CCN(Cc7ccc(-n8c(C(=O)NC(C)C(F)(F)F)nnc8-c8cc(C(C)C)c(O)cc8O)cc7)CC6)CN5C)nc4c3F)c12 (some centres unmarked) is 6.00 to 7.00

The reported AGS gastric carcinoma cells [heterozygous G12D] pEC50 of C#Cc1cccc2cc(O)cc(-c3ncc4c(N5CC6CCC(C5)N6C(C)=O)nc(OCC5(CN6CCN(CC7CCN(Cc8ccc9c(c8)CN(C(=O)c8cc(C(C)C)c(O)cc8O)C9)CC7)CC6)CC5)nc4c3F)c12 is 6.00 to 7.00

The reported AGS gastric carcinoma cells [heterozygous G12D] pEC50 of C#Cc1c(F)ccc2cc(O)cc(-c3ncc4c(N5CC6CNC(C6)C5)nc(OCC5(CN6CCC(C7CCN(Cc8ccc(-n9c(C(=O)NC(C)C(F)(F)F)nnc9-c9cc(C(C)C)c(O)cc9O)cc8)CC7)CC6)CC5)nc4c3F)c12 (centres unmarked) is 6.00 to 7.00

The reported AGS gastric carcinoma cells [heterozygous G12D] pEC50 of C#Cc1cccc2cc(O)cc(-c3ncc4c(N5CC6CCC(C5)N6)nc(OC[C@@H]5C[C@H](CN6CCN(Cc7ccc(-n8c(C(=O)NC(C)C(F)(F)F)nnc8-c8cc(C(C)C)c(O)cc8O)cc7)CC6)CN5C)nc4c3F)c12 (some centres unmarked) is 6.00 to 7.00

###

system: AGS gastric carcinoma cells [heterozygous G12D]; assay: Cancer cell line proliferation (CellTiter-Glo), AGS; assay type: cell-based; settings: Homo sapiens, 72 hr treatment, read-out: AGS CTG (EC50)
pEC50: −log10 of the molar value.
Metric Name: pEC50

Reference set, count: 4
CCNC(=O)c1nnc(-c2cc(C(C)C)c(O)cc2O)n1-c1ccc(CN2CCN(C[C@H]3C[C@@H](COc4nc(N5CC6CCC(C5)N6)c5cnc(-c6cc(O)cc7ccccc67)c(F)c5n4)N(C)C3)CC2)cc1 > 7.00
CC(C)c1cc(C(=O)N2Cc3ccc(CN4CCN(C[C@H]5CC[C@@H](COc6nc(N7CC8CCC(C7)N8)c7cnc(-c8cccc9cccc(F)c89)c(F)c7n6)N5C)CC4)cc3C2)c(O)cc1O 6.00 to 7.00
C#Cc1c(F)ccc2cc(O)cc(-c3ncc4c(N5CC6CCC(C5)N6C(=O)C(F)(F)F)nc(OCC5(CN6CCN(CC7CCN(Cc8ccc(-n9c(C(=O)NCC)nnc9-c9cc(C(C)C)c(O)cc9O)cc8)CC7)CC6)CC5)nc4c3F)c12 > 7.00
C#Cc1cccc2cccc(-c3ncc4c(N5CC6CCC(C5)N6)nc(OCC5(CN6CCN(Cc7ccc(-n8c(C(=O)NCC(F)(F)F)nnc8-c8cc(C(C)C)c(O)cc8O)cc7)CC6)CC5)nc4c3F)c12 > 7.00

Value of pEC50 reported for the compound C#Cc1c(F)ccc2cc(O)cc(-c3ncc4c(N5CC6CCC(C5)N6)nc(OCC5(CN6CCC(C7CCN(Cc8ccc9c(c8)CN(C(=O)c8cc(C(C)C)c(O)cc8O)C9)CC7)CC6)CC5)nc4c3F)c12 is > 7.00

Value of pEC50 reported for the compound C#Cc1c(F)ccc2cc(O)cc(-c3ncc4c(N5CC6CCC(C5)N6CC#N)nc(OCC5(CN6CCC(N7CCN(Cc8ccc9c(c8)CN(C(=O)c8cc(C(C)C)c(O)cc8O)C9)CC7)CC6)CC5)nc4c3F)c12 is > 7.00

Value of pEC50 reported for the compound C#Cc1c(F)ccc2cc(O)cc(-c3ncc4c(N5CC6CCC(C5)N6)nc(OCC5(CN6CCN(CC7CCN(Cc8ccc(-n9c(C(=O)NCC)nnc9-c9cc(C(C)C)c(O)cc9O)cc8)CC7)CC6)CC5)nc4c3F)c12 is > 7.00

Value of pEC50 reported for the compound CCNC(=O)c1nnc(-c2cc(C(C)C)c(O)cc2O)n1-c1ccc(CN2CCC(C(=O)N3CCN([C@H]4C[C@@H](COc5nc(N6CC7CCC(C6)N7)c6cnc(-c7cc(O)cc8ccccc78)c(F)c6n5)N(C)C4)CC3)CC2)cc1 is 6.00 to 7.00

Value of pEC50 reported for the compound Cc1cccc2cccc(-c3ncc4c(N5CC6CCC(C5)N6)nc(OC[C@@H]5C[C@H](N6CCN(Cc7ccc8c(c7)CN(C(=O)c7cc(C(C)C)c(O)cc7O)C8)CC6)CN5C)nc4c3F)c12 is 6.00 to 7.00
